Reported protein stability index values are given for each entry in this list.
Experiment: protein stability index of a GFP-peptide fusion (yeast GPS) (PSI 1-4); higher = more stable; sorted into four equal gates, so the index is relative within each strain
Conditions: doa10∆
Form rule: numeric answer, no unit written next to it.

SEQUENCE RECORD: NPTKSKEILDNILPFLW [ECM29]
NUMERIC VALUE: 2.26

Identify protein stability index associated with the sequence FHSTYLMNGVKPFKSFL [FAS1]
2.65

====

Assay: protein stability index of a GFP-peptide fusion (yeast GPS) (PSI 1-4); higher = more stable; sorted into four equal gates, so the index is relative within each strain
Details: ubr1∆
Criterion: protein stability index meeting or surpassing 2. Met: Fulfilled. Not met: Not fulfilled.

Completed entries (count: 2):
SEQUENCE RECORD: RFKNSVKWYHFDHNDKK [PRE7]
DISCRETE LABEL: Fulfilled

SEQUENCE RECORD: LRIVTHLAICLDIINPG [YDL116W/NUP84]
DISCRETE LABEL: Not fulfilled

Confirm if protein stability index reported for the sequence ILLRYHHNDISNDSQSH [YCG1] is 2 or above.
Not fulfilled

Confirm if protein stability index reported for the sequence KELMLQSKKLIEEKLSS [YIL149C/MLP2] is 2 or above.
Fulfilled

Confirm if protein stability index reported for the sequence NSEYLKRRVTNLEFNYT [SMC2] is 2 or above.
Fulfilled
